- Target Entity: Cathepsin D (Cat D) (Homo sapiens (Human), UniProt P07339)
- Sequence (P07339 65-412, species assumed): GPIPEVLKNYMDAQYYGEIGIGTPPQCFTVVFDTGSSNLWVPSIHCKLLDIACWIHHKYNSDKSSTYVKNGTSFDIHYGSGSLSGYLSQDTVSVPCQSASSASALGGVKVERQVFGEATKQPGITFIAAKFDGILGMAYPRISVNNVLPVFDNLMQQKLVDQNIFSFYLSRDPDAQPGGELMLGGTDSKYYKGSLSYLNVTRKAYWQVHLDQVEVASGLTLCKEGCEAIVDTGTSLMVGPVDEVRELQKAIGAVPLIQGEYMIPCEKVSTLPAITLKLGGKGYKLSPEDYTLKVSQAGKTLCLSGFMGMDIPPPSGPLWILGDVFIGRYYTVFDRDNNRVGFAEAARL
- Protocol: In vitro enzymatic Cathepsin D (Cat D) FRET assay
- Format: biochemical
- Run Parameters: read-out: CatD IC50
Assay Endpoint: IC50 (µM)

(a) C[C@@]1(c2nc(NC(=O)c3ccc(C#N)cn3)ccc2F)N=C(N)O[C@H]2C[C@H]21
(b) COc1cnc2c(Nc3ccc(F)c([C@@]4(C(F)F)N=C(N)O[C@@H]5C[C@@H]54)c3)nccc2n1
Task: Please let me know which one, a or b , has a lower measured IC50 value. Return value: the label identifying the chosen record.
Output: b
(b: 501 µM, a: 1290 µM)

(1) NC1=N[C@](c2cc(NC(=O)c3nn(C(F)F)cc3Cl)ccc2Cl)(C(F)F)[C@@H]2C[C@@H]2O1 [Example 225]
(2) NC1=N[C@@](c2cc(NC(=O)c3cc(Cl)cs3)ccc2F)(C(F)F)[C@H]2C[C@H]2O1
(3) COc1cnc(C(=O)Nc2ccc(F)c([C@@]3(C(F)F)N=C(N)O[C@@H]4C[C@@H]43)c2)c(C)n1
(4) NC1=N[C@@](CF)(c2nc(NC(=O)c3ccc(Cl)cn3)ccc2F)[C@@H]2C[C@@H]2O1 (stereo in doubt)
(5) C#CCOc1cnc(C(=O)Nc2ccc(Cl)c([C@]3(C(F)F)N=C(N)O[C@H]4C[C@H]43)c2)cn1 [Example 222]
Task: Thanks in advance: please rank these 5 entries by IC50, highest to lowest. // rank by listing labels in the order requested
Output: 1, 2, 5, 4, 3

###

- Target Entity: BACE (Homo sapiens (Human))
- Protocol: In vitro BACE cell-based assay (Aβ40 in conditioned medium, sandwich ELISA)
Assay Endpoint: IC50 (µM)

{"Compound": "Cn1nc(C(F)F)cc1C(=O)Nc1ccc(F)c([C@@]2(C(F)F)N=C(N)O[C@@H]3C[C@@H]32)c1 [Example 154]", "Assay Endpoint": "IC50", "Readout Units": "µM", "Recorded Measurement": 0.109}

(P) COc1cnc(C(=O)Nc2ccc(F)c([C@@]3(C(F)F)N=C(N)O[C@@H]4C[C@@H]43)c2)c(OC)n1 [Example 84]
(Q) C=CCOc1cnc(C(=O)Nc2ccc(F)c([C@@]3(C(F)F)N=C(N)O[C@@H]4C[C@@H]43)c2)cn1 [Example 414]
(R) NC1=N[C@](CF)(c2cc(NC(=O)c3nn(C(F)F)cc3Cl)ccc2F)[C@H]2C[C@H]2O1 [Example 164]
Task: List by increasing IC50. Provide the labels, sequenced as the question asks.
Output: R, Q, P
(R: 0.0109 µM, Q: 0.146 µM, P: 0.361 µM)

###

- Target Entity: BACE (Homo sapiens (Human), UniProt P56817)
- Sequence (P56817 46-501, species assumed): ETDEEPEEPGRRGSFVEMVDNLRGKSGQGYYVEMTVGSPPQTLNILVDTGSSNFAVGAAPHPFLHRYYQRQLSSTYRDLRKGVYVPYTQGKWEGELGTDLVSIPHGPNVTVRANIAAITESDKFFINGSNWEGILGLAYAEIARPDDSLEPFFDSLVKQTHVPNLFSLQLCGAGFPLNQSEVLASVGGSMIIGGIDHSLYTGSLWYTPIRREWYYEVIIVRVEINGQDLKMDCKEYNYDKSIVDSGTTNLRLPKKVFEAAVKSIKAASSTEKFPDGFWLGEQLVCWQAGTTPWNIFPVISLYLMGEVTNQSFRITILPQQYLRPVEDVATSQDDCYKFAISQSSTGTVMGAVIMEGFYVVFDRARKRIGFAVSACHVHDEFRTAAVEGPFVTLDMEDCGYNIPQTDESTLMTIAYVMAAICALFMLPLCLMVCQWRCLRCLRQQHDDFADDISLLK
- Protocol: In vitro BACE cell-based assay (Aβ40 in conditioned medium, sandwich ELISA)
Assay Endpoint: IC50 (µM)

Study these solved cases before continuing.
{"Molecule": "C#CCOc1cnc(C(=O)Nc2cc(F)c(F)c([C@@]3(CF)N=C(N)O[C@@H]4C[C@@H]43)c2)cn1", "Target Entity": "BACE (Homo sapiens (Human), UniProt P56817)", "Readout Units": "µM", "IC50": 0.0014}
{"Molecule": "N#Cc1cnc2c(Nc3ccc(F)c([C@@]4(CF)N=C(N)O[C@@H]5C[C@@H]54)c3)nccc2c1", "Target Entity": "BACE (Homo sapiens (Human), UniProt P56817)", "Readout Units": "µM", "IC50": 0.0176}
{"Molecule": "NC1=N[C@](CF)(c2cc(NC(=O)c3cnc(OCC(F)(F)F)cn3)cc(Cl)c2F)[C@H]2C[C@H]2O1", "Target Entity": "BACE (Homo sapiens (Human), UniProt P56817)", "Readout Units": "µM", "IC50": 0.0213}

(1) NC1=N[C@@](c2cc(Nc3nccc4cc(Cl)cnc34)ccc2F)(C(F)F)[C@H]2C[C@H]2O1
(2) NC1=N[C@@](c2cc(NC[C@H]3C[C@H]3c3ccccc3)ccc2F)(C(F)F)[C@H]2C[C@H]2O1
(3) Cc1cc(C(F)F)cnc1C(=O)Nc1ccc(Cl)c([C@@]2(CF)N=C(N)O[C@@H]3C[C@@H]32)c1
(4) COc1cnc(C(=O)Nc2ccc(F)c([C@@]3(C(F)F)N=C(N)O[C@@H]4C[C@@H]43)c2)nc1
Task: Put the molecules in ascending order of IC50. // rank by listing labels in the order requested
Output: 3, 4, 1, 2
(3: 0.0148 µM, 4: 0.0574 µM, 1: 0.254 µM, 2: 4.94 µM)

###

- Target Entity: Cathepsin D (Cat D) (Homo sapiens (Human), UniProt P07339)
- Protocol: In vitro enzymatic Cathepsin D (Cat D) FRET assay
- Format: biochemical
- Run Parameters: read-out: CatD IC50
Assay Endpoint: IC50 (µM)

Solved cases (5 shown):
{"Compound": "Cc1cc(C#N)cnc1C(=O)Nc1cc(F)c(C)c([C@]2(C(F)F)N=C(N)O[C@H]3C[C@H]32)c1", "Readout Units": "µM", "IC50": 294}
{"Compound": "NC1=N[C@](CF)(c2cc(NC(=O)c3ccc(Cl)cn3)ccc2Cl)[C@H]2C[C@H]2O1", "Readout Units": "µM", "IC50": 646}
{"Compound": "Cc1cc(OC(F)F)cnc1C(=O)Nc1cc(Cl)c(F)c([C@@]2(CF)N=C(N)O[C@@H]3C[C@@H]32)c1", "Readout Units": "µM", "IC50": 164}
{"Compound": "NC1=N[C@@](c2cc(NCC3CCC3)ccc2F)(C(F)F)[C@H]2C[C@H]2O1", "Readout Units": "µM", "IC50": 121}
{"Compound": "CC(C)c1cc(C#N)cnc1C(=O)Nc1ccc(F)c([C@@]2(C(F)F)N=C(N)O[C@@H]3C[C@@H]32)c1", "Readout Units": "µM", "IC50": 1070}

(I) NC1=N[C@@](c2cc(NC(=O)c3cnc(C#CC4CC4)cn3)ccc2F)(C(F)F)[C@H]2C[C@H]2O1
(II) COc1cnc(C(=O)Nc2cccc([C@@]3(C(F)F)N=C(N)O[C@@H]4C[C@@H]43)c2)cn1
Task: // which entry has the larger IC50 value, I or II ? The response must carry the label of the picked entry.
Output: II
(II: 793 µM, I: 170 µM)

(I) Cc1cc(C#N)cnc1C(=O)Nc1cc(F)c(C)c([C@@]2(C(F)F)N=C(N)O[C@@H]3C[C@@H]32)c1 (racemic) [Example 309]
(II) NC1=N[C@@](c2cc(NC(=O)c3cnc(OCC(F)(F)F)cn3)ccc2F)(C(F)F)[C@H]2C[C@H]2O1
Task: Hello, I am sorting some records. Could you say if I or II has the smaller IC50 value? State the label of the item chosen.
Output: I

(I) C#C[C@@H](C)Oc1cnc(C(=O)Nc2ccc(F)c([C@@]3(C(F)F)N=C(N)O[C@@H]4C[C@@H]43)c2)cn1
(II) Cc1nc(C(=O)Nc2ccc(F)c([C@@]3(C(F)F)N=C(N)O[C@@H]4C[C@@H]43)c2)co1
Task: Rank I against II by their IC50 values and give the higher one. // caller expects the label of the chosen entry
Output: I

###

- Target Entity: UniProtKB P56817
- Protocol: In vitro BACE cell-based assay (Aβ40 in conditioned medium, sandwich ELISA)
Assay Endpoint: IC50 (µM)

The examples below pair each entry with its known result.
{"Molecule": "NC1=N[C@@](CF)(c2cc(NC(=O)c3ccc(Cl)cn3)ccc2F)[C@@H]2C[C@@H]2O1", "IC50 [µM]": 0.221}
{"Molecule": "C#CCOc1cnc(C(=O)Nc2cc(F)c(F)c(C3(CF)N=C(N)O[C@H]4C[C@H]43)c2)cn1 (stereo in doubt)", "IC50 [µM]": 1.75}
{"Molecule": "N#Cc1ccc(C(=O)Nc2ccc(F)c([C@@]3(CF)N=C(N)O[C@@H]4C[C@@H]43)c2)nc1", "IC50 [µM]": 0.0079}
{"Molecule": "COc1cnc(C(=O)Nc2cc(Cl)c(F)c([C@@]3(CF)N=C(N)O[C@@H]4C[C@@H]43)c2)cn1", "IC50 [µM]": 0.0067}
{"Molecule": "COc1cnc(C(=O)Nc2cc(F)c(Cl)c([C@@]3(CF)N=C(N)O[C@@H]4C[C@@H]43)c2)cn1", "IC50 [µM]": 0.0199}
{"Molecule": "Cc1cc(C#N)cnc1C(=O)Nc1cc(F)c(C)c([C@]2(C(F)F)N=C(N)O[C@H]3C[C@H]32)c1", "IC50 [µM]": 0.0174}

(A) Cc1cc(C(F)(F)F)cnc1C(=O)Nc1ccc(Cl)c([C@@]2(CF)N=C(N)O[C@@H]3C[C@@H]32)c1
(B) NC1=N[C@@](c2cc(NC(=O)c3csc(C(F)F)n3)ccc2F)(C(F)F)[C@H]2C[C@H]2O1
Task: Recorded IC50 values differ for A and B ; which one is higher? API: response body contains the label of the selected item.
Output: B

(I) NC1=N[C@@](c2cc(NCc3ccc(Cl)cn3)ccc2F)(C(F)F)[C@H]2C[C@H]2O1
(II) NC1=N[C@](CF)(c2cc(NC(=O)c3ccc(OCF)cn3)ccc2Cl)[C@H]2C[C@H]2O1
Task: Between I and II , whose measured IC50 reads higher? The response must carry the label of the picked entry.
Output: I
